assay: Plasma protein binding; assay type: in vitro ADME; conditions: human, plasma; primates, including humans

>  <chemical smiles>
Cc1onc(-c2ccc(F)cc2)c1COc1ccc(C(=O)N2CCS(=O)(=O)CC2)cn1

>  <fraction unbound>
0.055

$$$$

----------
assay: Plasma exposure in EEG study; format: in vivo; details: human, oral, 240 mg twice daily, day 14, 1 h post morning dose, mean ± SD

>  <compound>
Cc1onc(-c2ccc(F)cc2)c1COc1ccc(C(=O)N2CCS(=O)(=O)CC2)cn1 [basmisanil]

>  <concentration at 1 h / ng/mL>
3280

$$$$

----------
Assay: Pharmacokinetics, single oral dosing
Format: in vivo
Settings: C57/Bl6, mouse, plasma; 4 mg/kg oral, microsuspension, n = 2 male
Protocol: Concentrations were chosen to achieve the desired doses by administering 5 mL/kg to rats and 2.5 mL/kg to NHPs via oral gavage. The calibration range was from 1.0 to 5000 ng/mL. After protein precipitation with ethanol, the sample solution was injected onto a Gemini C18 trapping column (2 × 10 mm; Phenomenex, Torrance, CA, USA) and polar endogenous compounds and salts were rinsed off. […]

>  <compound>
Cc1onc(-c2ccc(F)cc2)c1COc1ccc(C(=O)N2CCS(=O)(=O)CC2)cn1 [basmisanil]

>  <Cmax (ng/mL)>
520

$$$$
